The values you see were collected from the RNAGym collection of RNA variant scans (doi:10.7554/elife.90254).

B1: LINE1-full (parent)
chain: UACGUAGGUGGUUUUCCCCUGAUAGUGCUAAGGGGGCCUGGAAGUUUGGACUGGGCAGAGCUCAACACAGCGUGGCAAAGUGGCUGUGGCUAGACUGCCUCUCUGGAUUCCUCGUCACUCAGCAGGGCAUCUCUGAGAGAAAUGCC

- Variants of: B1
- assay_name: self-cleavage, relative activity (ratio to wild type); higher = more cleavage; in vitro, sequencing; the parent is a self-cleaving ribozyme
reported_metric: self-cleavage

ordered_residues="UACGUAGGUGGUUUUCCCCUAAUAGUGCUAAGGGGGCCUGGAAGUUUGGACUGGGCAGAGCUCAACACAGCGUGGCUAAGUGGCUGUGGCUAGACUGCCUCUCUGGAUUCCUCGUCACUCAGCAGGGCAUCUCUGAGAGAAAUGCC [G21A A77U]" data_value=1.18
ordered_residues="UACGUAGGUGGUUUACCCCUGAUAGUGCUAAGGGGGCCUGGAAGUUUGGACUGGGCAGAGCUCAACACAGCGUGGCAAAGUGGCUGUGGCUAGACUGCCUCUCUGGAUUCCUCGUCACUCAGCAGGGCAUCUCUGGGAGAAAUGCC [U15A A136G]" data_value=1.26
ordered_residues="UACGUAGGUGGGUUUCCCCUGAUAGUGCUAAGGGGGCCAGGAAGUUUGGACUGGGCAGAGCUCAACACAGCGUGGCAAAGUGGCUGUGGCUAGACUGCCUCUCUGGAUUCCUCGUCACUCAGCAGGGCAUCUCUGAGAGAAAUGCC [U12G U39A]" data_value=1.05
ordered_residues="UACGUAGGUGGUUUUCCCCUGAUAGUGCUAAGGGGGCCUAGAAGUUUGGACUGGGCAGAGCUCCACACAGCGUGGCAAAGUGGCUGUGGCUAGACUGCCUCUCUGGAUUCCUCGUCACUCAGCAGGGCAUCUCUGAGAGAAAUGCC [G40A A64C]" data_value=0.18
ordered_residues="UACGUAGGCGGUUUUCCCCUGAUAGUGCUAAGGGGGCCUGGAAGUUUGGACUGGGCAGAGCUCAACACAGCGUGGCAAAGUAGCUGUGGCUAGACUGCCUCUCUGGAUUCCUCGUCACUCAGCAGGGCAUCUCUGAGAGAAAUGCC [U9C G82A]" data_value=2.23
ordered_residues="UACGUAGGUGGUUUUCCCCUGAUAGUGCUAAGGGGGCCUGGAAGUUUGGACUGGGCAGAGCUCAACACAGCGUGGCAGAGUGGCUGAGGCUAGACUGCCUCUCUGGAUUCCUCGUCACUCAGCAGGGCAUCUCUGAGAGAAAUGCC [A78G U87A]" data_value=0.1
ordered_residues="UACGUAGGUGGUUUCCCCCUGAUAGUGCUAAGGGGGCCUGUAAGUUUGGACUGGGCAGAGCUCAACACAGCGUGGCAAAGUGGCUGUGGCUAGACUGCCUCUCUGGAUUCCUCGUCACUCAGCAGGGCAUCUCUGAGAGAAAUGCC [U15C G41U]" data_value=0.57
ordered_residues="UACCUAGGUGGUUUUCCCCUGAUAGUGCUAAGGGGGCCUGGAAGUUUGGACUGGGCAGAGCUCAACACAGCGUGGCAGAGUGGCUGUGGCUAGACUGCCUCUCUGGAUUCCUCGUCACUCAGCAGGGCAUCUCUGAGAGAAAUGCC [G4C A78G]" data_value=0.81
ordered_residues="UACGUAGGUGGUUUUCCCCUGAUAGUGCUAAAGGGGCCUGGAAGUUUGGACUGGGCAGAGCUCAACACAGCGUGGCAAAGUGGCUGUGGCUAGACUGCCUCUCUGGAUUCCUCGUCACUCAGCAGGGCAUCUCUGAGAGGAAUGCC [G32A A140G]" data_value=1.61
ordered_residues="UACGUAGGUGGUUUUCCCCUGAUAGUGCUAAGGGGGCCUGGAAGUUUGGACUGGGCAGAGCUCAACACAGCGUGGCAAAGCGGCUGUGGCUAGACUGCCUCUCUGGAUUCCUCGUCUCUCAGCAGGGCAUCUCUGAGAGAAAUGCC [U81C A117U]" data_value=1.56
ordered_residues="UACGUAGGUGGUUUUCCCCUGAUAGUGCUAAGGGGGCCUGGAAGUUUGGACUGGGCAGAGCUCAACCCAGCGUGGCAAAGUGGCUGUGGCUAGACUGCCUCUCUGGAUUCCUCGUCAGUCAGCAGGGCAUCUCUGAGAGAAAUGCC [A67C C118G]" data_value=0.05
ordered_residues="UACGUAGGUGGUUUUCCCCUGAUAGUGCUAAGGGGGCCUGGAACUUUGGACUGGGCAGAGCUCAACACAGCGUGGCAAAGUGGCUGUGGCUAGACUGCCUCUCUGGAUUCCUCGUCACUCAGCAGGGCAUCUCUGAGAGAGAUGCC [G44C A141G]" data_value=1.03
ordered_residues="UACGUAGGUGGUUUUCCCCUGAUAGUGCUAUGGGGGCCUGGAAGUUUGGACUGGGCAGAGCUCAACACAGCGUGGCAAAGUGGCUGUGGCUAGACUGCCUCUCUGGAUUCCUCGUCACUCAGCAGGGCAUCUCUGAGAGUAAUGCC [A31U A140U]" data_value=0.94
ordered_residues="UGCGUAGGUGGUUUUCCCCUGAUAGUGCUAAGGGGGCCUGGAAGUUUGGACUGGGCAGAGCUCAACACAGCGUGGCAAAGUGGCUGUGGCUAGACAGCCUCUCUGGAUUCCUCGUCACUCAGCAGGGCAUCUCUGAGAGAAAUGCC [A2G U96A]" data_value=0.22
ordered_residues="UACGUAGGUGGUUUUCCCCUGAUAAUGCUAAGGGGGCCUGGAAGUUCGGACUGGGCAGAGCUCAACACAGCGUGGCAAAGUGGCUGUGGCUAGACUGCCUCUCUGGAUUCCUCGUCACUCAGCAGGGCAUCUCUGAGAGAAAUGCC [G25A U47C]" data_value=0.54
ordered_residues="UACGUAGGUGGUUUUCCCCUGAUAGUGCUAAGGGGGCCUGGAAGUUUGGACUGGGCAGAGCUCAACACAGCGUGGCAAAGUGGCUGUGGCUAGACUGCCUCUCUGGACUCCUCGUCACUCAGCAGGGCAUCUCCGAGAGAAAUGCC [U108C U134C]" data_value=1.57
ordered_residues="UACGUAGGUGGUUUUCCCCUGAUAGUGCUAAGGGGGCCUGGAAGUUUGGACUGGGCAGAGCUCAACACAGCGCGGCAAAGUGGCUGUGGCUAGACAGCCUCUCUGGAUUCCUCGUCACUCAGCAGGGCAUCUCUGAGAGAAAUGCC [U73C U96A]" data_value=0.14
